system name: CHT (Homo sapiens)
Sequence (Q9GZV3 whole entry): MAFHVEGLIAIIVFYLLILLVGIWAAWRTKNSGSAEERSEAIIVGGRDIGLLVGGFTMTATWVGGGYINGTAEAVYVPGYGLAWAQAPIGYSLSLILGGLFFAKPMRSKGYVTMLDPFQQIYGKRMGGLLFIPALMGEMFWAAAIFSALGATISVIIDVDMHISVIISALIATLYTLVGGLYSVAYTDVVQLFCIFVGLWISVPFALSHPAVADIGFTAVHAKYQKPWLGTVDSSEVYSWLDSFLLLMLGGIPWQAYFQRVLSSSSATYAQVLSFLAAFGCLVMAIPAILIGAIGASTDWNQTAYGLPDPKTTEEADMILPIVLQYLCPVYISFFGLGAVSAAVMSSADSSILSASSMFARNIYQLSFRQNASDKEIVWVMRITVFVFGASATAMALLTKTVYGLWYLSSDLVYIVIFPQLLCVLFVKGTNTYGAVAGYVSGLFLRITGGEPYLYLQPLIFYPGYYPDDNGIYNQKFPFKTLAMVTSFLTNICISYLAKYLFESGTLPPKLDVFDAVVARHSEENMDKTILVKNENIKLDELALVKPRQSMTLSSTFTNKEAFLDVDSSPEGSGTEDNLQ
test summary: cell-based
Label yes when EC50 is strictly below 2 µM; at or above that, label no.

Field: example entries. Status: answers known.
CNC(=O)C1CCC(Nc2nc(Nc3ccc(S(C)(=O)=O)cc3)ncc2C(F)(F)F)C1 (centres unmarked) : no
CN[C@@H]1C[C@H]2O[C@@](C)([C@@H]1OC)n1c3ccccc3c3c4c(c5c6ccccc6n2c5c31)C(=O)NC4 : yes
N#Cc1c[nH]c2ncnc(N3CCC4(CC3)CNCc3ccc(C(F)(F)F)nc34)c12 : no

In the record for Cn1ncc2nc(-c3ccnc(N)c3)nc(N3CCNCC3(C)C)c21 , is EC50 less than 2 µM?
no
